- MEASURED_TARGET: α4β7 integrin (Homo sapiens (Human), UniProt P13612+P26010)
- Sequence (P13612 34-1032): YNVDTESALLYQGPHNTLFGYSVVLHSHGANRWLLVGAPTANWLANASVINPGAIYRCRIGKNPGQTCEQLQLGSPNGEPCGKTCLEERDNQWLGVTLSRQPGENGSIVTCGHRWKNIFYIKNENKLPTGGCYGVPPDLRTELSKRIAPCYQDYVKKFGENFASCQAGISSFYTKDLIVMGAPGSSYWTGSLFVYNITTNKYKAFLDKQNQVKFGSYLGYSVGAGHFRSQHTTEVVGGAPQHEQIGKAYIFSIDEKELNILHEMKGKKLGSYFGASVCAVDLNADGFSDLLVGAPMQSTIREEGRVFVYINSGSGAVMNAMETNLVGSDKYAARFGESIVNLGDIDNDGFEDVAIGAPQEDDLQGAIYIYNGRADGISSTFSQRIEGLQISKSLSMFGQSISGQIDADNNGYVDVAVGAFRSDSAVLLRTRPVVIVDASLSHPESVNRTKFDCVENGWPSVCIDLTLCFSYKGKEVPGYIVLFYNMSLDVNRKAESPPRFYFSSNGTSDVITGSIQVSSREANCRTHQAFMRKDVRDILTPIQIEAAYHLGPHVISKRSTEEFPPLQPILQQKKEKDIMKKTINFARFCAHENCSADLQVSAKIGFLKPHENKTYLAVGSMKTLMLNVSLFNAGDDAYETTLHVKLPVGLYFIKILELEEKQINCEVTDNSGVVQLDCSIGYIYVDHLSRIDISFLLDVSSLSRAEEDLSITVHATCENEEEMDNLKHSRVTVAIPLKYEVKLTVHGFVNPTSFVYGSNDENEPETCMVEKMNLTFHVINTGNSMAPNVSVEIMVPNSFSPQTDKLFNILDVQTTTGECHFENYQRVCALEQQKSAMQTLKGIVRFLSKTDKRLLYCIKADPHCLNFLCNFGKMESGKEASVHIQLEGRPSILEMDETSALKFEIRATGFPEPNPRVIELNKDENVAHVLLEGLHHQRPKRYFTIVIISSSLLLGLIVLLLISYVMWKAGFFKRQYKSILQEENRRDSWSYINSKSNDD
- Sequence (P26010 20-798): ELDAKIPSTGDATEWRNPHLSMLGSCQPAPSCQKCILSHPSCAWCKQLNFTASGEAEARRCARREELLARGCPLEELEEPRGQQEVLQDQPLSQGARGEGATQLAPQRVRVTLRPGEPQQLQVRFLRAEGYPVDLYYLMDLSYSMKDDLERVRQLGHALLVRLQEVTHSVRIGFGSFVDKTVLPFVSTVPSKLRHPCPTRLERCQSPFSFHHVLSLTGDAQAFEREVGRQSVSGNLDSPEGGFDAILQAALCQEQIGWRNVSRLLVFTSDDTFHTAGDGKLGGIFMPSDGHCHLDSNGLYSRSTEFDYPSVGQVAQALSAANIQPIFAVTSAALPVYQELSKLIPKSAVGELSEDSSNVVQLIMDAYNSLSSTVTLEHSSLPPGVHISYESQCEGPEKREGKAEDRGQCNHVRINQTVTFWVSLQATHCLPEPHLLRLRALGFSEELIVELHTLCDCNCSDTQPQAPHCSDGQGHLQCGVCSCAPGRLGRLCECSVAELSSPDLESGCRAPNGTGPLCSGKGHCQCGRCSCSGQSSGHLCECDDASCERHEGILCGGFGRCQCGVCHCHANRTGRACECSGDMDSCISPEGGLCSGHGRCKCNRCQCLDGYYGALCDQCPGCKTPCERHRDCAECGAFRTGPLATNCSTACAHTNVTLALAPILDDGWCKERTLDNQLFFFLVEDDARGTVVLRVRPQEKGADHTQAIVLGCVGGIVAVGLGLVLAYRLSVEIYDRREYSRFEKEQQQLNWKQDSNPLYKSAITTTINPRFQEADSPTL
- PROCEDURE_SUMMARY: α4β7 Integrin Cell Capture Assay
- Type: cell-based
- COND: Table 2; capture of α4β7 expressing RPM18866 cells on MadCAM-1 extracellular domain-coated plate
PROPERTY_LABEL: EC50

CCC(CC)Nc1cc(F)c(C(=O)N[C@@H](Cc2ccc(-c3c(C(F)(F)F)cc(C)n(C)c3=O)c3ncccc23)C(=O)O)c(F)c1 [Example 272] = 4.5 nM
Cc1cc(C(F)(F)F)c(-c2ccc(C[C@H](NC(=O)c3c(F)cc(N4CCCC[C@@H]4C(F)(F)F)cc3F)C(=O)O)c3cccnc23)c(=O)n1C (atropisomer, axis not shown) [Example 344] = 0.8 nM
CC(=O)c1cc(F)c(C(=O)N[C@@H](Cc2ccc(-c3ccc(C#N)cc3Cl)c3ncccc23)C(=O)O)c(F)c1 [Example 241] = 80.1 nM
Cn1c(C2CC2)cc(C(F)(F)F)c(-c2ccc(C[C@H](NC(=O)c3c(F)cc(N4CCOC[C@@H]4C(F)(F)F)cc3F)C(=O)O)c3cccnc23)c1=O [Example 158] = 0.3 nM
CC[C@@H](Nc1cc(F)c(C(=O)N[C@@H](Cc2ccc(-c3nc(C)c(C)nc3C)c3ncccc23)C(=O)O)c(F)c1)C(F)(F)F [Example 295] = 7.4 nM

Pending molecule:
EC50 in this record for CC[C@@H](Nc1cc(F)c(C(=O)N[C@@H](Cc2ccc(-c3nc(C)c4ccc(F)cc4n3)c3ncccc23)C(=O)O)c(F)c1)C(F)(F)F [Example 258] : 3.6 nM

###

- MEASURED_TARGET: α4β7 integrin (Homo sapiens (Human), UniProt P13612+P26010)
- PROCEDURE_SUMMARY: α4β7 Integrin Cell Capture Assay
- Format: cell-based
- COND: Table 2; capture of α4β7 expressing RPM18866 cells on MadCAM-1 extracellular domain-coated plate
Below: a set of entries, each annotated with reported EC50.
Number only, in nM; omit the unit.

Past entries and their recorded results:
COc1cc(C)n(C)c(=O)c1-c1ccc(C[C@H](NC(=O)c2c(F)cc(N[C@H](C3CC3)C(F)(F)F)cc2F)C(=O)O)c2cccnc12 = 0.4
C[C@@H](Nc1cc(F)c(C(=O)N[C@@H](Cc2ccc(-c3ncccc3C(F)(F)F)c3ncccc23)C(=O)O)c(F)c1)C(F)(F)F = 5.7
N#Cc1cc(Cl)c(-c2ccc(C[C@H](NC(=O)c3c(F)cc(CS(=O)(=O)c4ccccc4)cc3F)C(=O)O)c3cccnc23)c(Cl)c1 = 6.9
N#Cc1ccc(-c2ccc(C[C@H](NC(=O)c3c(F)cc(NC(c4ccccc4)C(F)F)cc3F)C(=O)O)c3cccnc23)c(Cl)c1 (stereo partly shown) = 19.1
Cc1[nH]c2cc(Cl)c(C(=O)N[C@@H](Cc3ccc(-c4ccc(C#N)cc4Cl)c4ncccc34)C(=O)O)c(Cl)c2c1C = 97.8

EC50 in this record for `O=C(N[C@@H](Cc1ccc(-c2ccc3c4c(ccnc24)CCO3)c2ncccc12)C(=O)O)c1c(F)cccc1F` : 11.2

EC50 in this record for `N#Cc1ccc(-c2ccc(C[C@H](NC(=O)c3c(F)cc(NC4(C(F)F)CC4)cc3F)C(=O)O)c3cccnc23)c(Cl)c1` : 45.9

EC50 in this record for `O=C(N[C@@H](Cc1ccc(-c2cc3ccccc3oc2=O)c2ncccc12)C(=O)O)c1c(Cl)cccc1Cl` : 63.1

EC50 in this record for `N#Cc1cc(Cl)c(-c2ccc(C[C@H](NC(=O)c3c(Cl)cccc3Cl)C(=O)O)c3cc(F)cnc23)c(Cl)c1` : 9.6

EC50 in this record for `Cn1ccc2c(Cl)c(C(=O)N[C@@H](Cc3ccc(-c4ccc(C#N)cc4Cl)c4ncccc34)C(=O)O)c(Cl)cc21` : 46.2

EC50 in this record for `O=C(N[C@@H](Cc1ccc(-c2c(C(F)(F)F)cc3n(c2=O)CCC3)c2ncccc12)C(=O)O)c1c(Cl)cccc1Cl` : 11.9

EC50 in this record for `COCCNC(=O)c1cc(F)c(C(=O)N[C@@H](Cc2ccc(-c3ccc(C#N)cc3Cl)c3ncccc23)C(=O)O)c(F)c1` : 37.1

EC50 in this record for `Cc1nc(-c2ccc(C[C@H](NC(=O)c3c(F)cc(N4CCOC[C@H]4C(F)(F)F)cc3F)C(=O)O)c3cccnc23)c(=O)n(C)c1C` : 3.4
